targetOfAssay: 3-hydroxyacyl-CoA dehydrogenase type-2 (Homo sapiens) (UniProt Q99714)
procedureSummary: qHTS Assay for Inhibitors of HSD17B4, hydroxysteroid (17-beta) dehydrogenase 4;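 further: the protocol describes HADH2 (HSD17B10) and not the HSD17B4 of the title; on the % scale 0 is the no-effect control and ±100 the full control effect; nearly all actives have a fitted effect of over 70% in size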
conditionsUsed: recombinant HSD17B10, NADH fluorescence kinetic; series mostly up to 57.1 µM
Among all 75,000 compounds or so, about 5,700 (7.6%) were called active. About 7% were inconclusive and are not listed. The call rests on the fitted dose curve; in most records, active means well fitted inhibition curve with a large enough effect; inconclusive means small, poorly fitted or top-dose-only effect; inactive means no such curve, though single readings can be large or run the other way. What follows is part of a selection rich in actives, with near analogues and random picks from the rest.
Result category, one only: true (1) (active), false (0) (inactive)

COc1ccc(-c2nc(SCC(=O)N3CCOCC3)n[nH]2)cc1
false (0)

**Query** Write down the call the test reported for this compound. Item: O=S(=O)(O)c1nc2ccccc2n1Cc1ccc(Cl)cc1
**Result** false (0)

**Query** Write down the call the test reported for this compound. Item: O=C(Nc1ccccc1)Nc1ccccc1C(=O)NCc1ccco1
**Result** false (0)

**Query** Write down the call the test reported for this compound. Item: Cc1ccc(-c2nc(CS(=O)CC(=O)NC3CCCC3)c(C)o2)cc1 (centres undefined)
**Result** false (0)

**Query** Write down the call the test reported for this compound. Item: CC(C)N(CCNC(=O)c1ccc(-n2c(=O)c(=O)[nH]c3ccccc32)cc1)C(C)C
**Result** false (0)

**Query** Write down the call the test reported for this compound. Item: CCn1c(COc2cccc(OC)c2)nnc1SCC(=O)N1CCOCC1
**Result** false (0)

**Query** Write down the call the test reported for this compound. Item: CCC1(C)CC(=O)NC1=O (centres undefined)
**Result** false (0)

----------
targetOfAssay: 3-hydroxyacyl-CoA dehydrogenase type-2 (Homo sapiens)
procedureSummary: qHTS Assay for Inhibitors of HSD17B4, hydroxysteroid (17-beta) dehydrogenase 4;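 further: the protocol describes HADH2 (HSD17B10) and not the HSD17B4 of the title; on the % scale 0 is the no-effect control and ±100 the full control effect; nearly all actives have a fitted effect of over 70% in size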
conditionsUsed: recombinant HSD17B10, NADH fluorescence kinetic; series mostly up to 57.1 µM
The whole screen tested about 75,000 compounds, of which about 5,700 (7.6%) were called active. Not shown: some 7% with an inconclusive outcome. What follows is part of a selection rich in actives, with near analogues and random picks from the rest.
observationType: Potency

Known Potency results, listed for orientation:
CCC1=C(OC(=O)N(CC)CC)N2C(=O)OC(=NCCc3c[nH]c4ccccc34)[C@]2(C)[C@H]2C1=CC[C@H]1C(=O)N(CC)C(=O)[C@H]12
inactive
COc1c(F)c(F)c(-c2csc(N)n2)c(F)c1F
inactive
c1ccc(-c2noc(-c3cccs3)n2)nc1
inactive
COC(=O)c1cccc(NC(=O)CSc2nc(C)cc(=O)[nH]2)c1
inactive
C/C(O)=C\c1nc(=O)c2c(C)cc(C)nc2n1-c1ccccc1
inactive
O=C(c1cnccn1)N1CCC[C@@]2(CCN(Cc3ccncc3)C2)C1
inactive
CC(=O)NC1=NC(=O)CS1
inactive
COc1ccccc1OCCNCC(O)COc1cccc2[nH]c3ccccc3c12 (stereo unspecified)
inactive

Now consider a different molecule.
The reported value for CCOC(=O)c1cc(NC(=O)SCC(=O)O)c(C)nc1C in terms of Potency is inactive

----------
targetOfAssay: 3-hydroxyacyl-CoA dehydrogenase type-2 (Homo sapiens) (UniProt Q99714)
procedureSummary: qHTS Assay for Inhibitors of HSD17B4, hydroxysteroid (17-beta) dehydrogenase 4;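 further: the protocol describes HADH2 (HSD17B10) and not the HSD17B4 of the title; on the % scale 0 is the no-effect control and ±100 the full control effect; nearly all actives have a fitted effect of over 70% in size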
conditionsUsed: recombinant HSD17B10, NADH fluorescence kinetic; series mostly up to 57.1 µM
Out of some 75,000 compounds screened, about 5,700 (7.6%) were called active. Inconclusive results (about 7%) are left out. This is one part of a sample in which actives are shown more often than they occur.
observationType: activity change, negative = inhibition

Known activity change, negative = inhibition results, listed for orientation:
C[C@@H]1/C=C\CC(=O)OC[C@H]2O[C@@H](C=C[C@@H]2O)[C@H](C)/C=C\CC(=O)OC[C@H]2O[C@H]1C=C[C@@H]2O
-0.26% [at 11.4 µM] (inactive)
O=C(O)[C@H](CCc1ccccn1)c1ccccc1
1.79% [at 11.4 µM] (inactive)
CC(C)CN1CCc2nc(-c3ccccc3)c3c(c2C1)COC(C)C3 (stereo not given)
-2.26% [at 11.4 µM] (inactive)
C/C(CCN1CCc2nc(-c3ccccc3)c(-c3ccccc3)cc2C1)=N\O[C@@H](C)c1cn([C@@H]2COC[C@@H]2O)nn1
2.35% [at 11.4 µM] (inactive)
Cc1cc(C)cc(C#CC2C=CC(Oc3ccc(C4CCCC4)cc3)C(CO)O2)c1 (stereo not given)
4.3% [at 11.4 µM] (inactive)
CCCNC(=O)OC[C@@H]1O[C@H](c2ccccc2)C=C[C@@H]1Oc1ccc(OC)cc1
-0.586% [at 11.4 µM] (inactive)

The reported value for c1ccc(CCN2CCN=C2Cc2ccccc2)cc1 in terms of activity change, negative = inhibition is 7.62% [at 11.4 µM] (inactive)

The reported value for Cc1ccc2nc(CC(=O)c3ccc4ccccc4c3)c(=O)[nH]c2c1 in terms of activity change, negative = inhibition is 5.47% [at 11.4 µM] (inactive)

The reported value for CC(C)CO/N=C1/C[C@@H](O)[C@@H](O)[C@@H]2[C@@H]3C(=O)N(C[C@@H]4CCCO4)C(=O)[C@H]3CC[C@@H]12 in terms of activity change, negative = inhibition is 9.42% [at 11.4 µM] (inactive)

The reported value for O=C(Cn1ccc(=O)[nH]c1=O)Nc1ccc(C(=O)O)c(O)c1 in terms of activity change, negative = inhibition is -0.357% [at 11.4 µM] (inactive)

The reported value for CN1CCc2[nH]nc(-c3n[nH]c4c3CN(C)CC4)c2C1 in terms of activity change, negative = inhibition is 4.35% [at 11.4 µM] (inactive)

The reported value for C[C@@H](N)[C@@H](C)Cc1ccccc1 in terms of activity change, negative = inhibition is 4.93% [at 11.4 µM] (inactive)

The reported value for c1ccc2sc(SCCSc3nc4ccccc4s3)nc2c1 in terms of activity change, negative = inhibition is 2.8% [at 11.4 µM] (inactive)

The reported value for Cc1cc(C)c2nc3c(c([C@H](O)[C@@H]4CCCCN4)c2c1)CC/C3=C/c1ccc(Cl)cc1 in terms of activity change, negative = inhibition is 9.81% [at 11.4 µM] (inactive)

The reported value for C#CCC(C(=O)OC)(C(=O)OC)C(C[N+](=O)[O-])c1ccccc1 (stereo not given) in terms of activity change, negative = inhibition is -8.6% [at 11.4 µM] (inactive)

FYI, the data here is from PubChem BioAssay AID893.
